Assay target: UniProt P41149
Test name: CRE/β-galactosidase reporter gene bioassay, agonist activity at mMC5R
Type: cell-based
pEC50: −log10 of the molar value. Square brackets hold non-standard residues; d marks the D form. Peptide text beside a SMILES is read from it. * marks the point of attachment. Bip = N[C@@H](Cc1ccc(-c2ccccc2)cc1)C(=O)O; dBip = N[C@H](Cc1ccc(-c2ccccc2)cc1)C(=O)O; dPhe(4-I) = N[C@H](Cc1ccc(I)cc1)C(=O)O; 2Nal = N[C@@H](Cc1ccc2ccccc2c1)C(=O)O; Bta = N[C@@H](Cc1csc2ccccc12)C(=O)O; 3Pal = N[C@@H](Cc1cccnc1)C(=O)O; 4Pal = N[C@@H](Cc1ccncc1)C(=O)O; Tic = O=C(O)[C@@H]1Cc2ccccc2CN1; Octanoyl = CCCCCCCC(=O)*
Answer not met if pEC50 is under 7, and met if it is 7 or more.

Example entries begin here.
[
  {
    "Molecule": "CC(=O)N[C@@H](Cc1ccncc1)C(=O)N[C@H](Cc1ccc(-c2ccccc2)cc1)C(=O)N[C@@H](CCCNC(=N)N)C(=O)N[C@@H](Cc1c[nH]c2ccccc12)C(N)=O [Peptide 22, Ac-4PAL-DBip-Arg-Trp-NH2] (Ac-[4Pal][dBip]RW-NH2)",
    "Assigned category": "not met"
  },
  {
    "Molecule": "CC(=O)N[C@@H](Cc1c[nH]cn1)C(=O)N[C@H](Cc1ccc(-c2ccccc2)cc1)C(=O)N[C@@H](CCCNC(=N)N)C(=O)N[C@@H](Cc1ccc2ccccc2c1)C(N)=O [Peptide 36, Ac-His-DBip-Arg-Nal(2’)-NH2] (Ac-H[dBip]R[2Nal]-NH2)",
    "Assigned category": "met"
  },
  {
    "Molecule": "CC(=O)N[C@@H](Cc1c[nH]cn1)C(=O)N[C@H](Cc1ccc(-c2ccccc2)cc1)C(=O)N[C@@H](CCCNC(=N)N)C(=O)N[C@@H](Cc1csc2ccccc12)C(N)=O [Peptide 34, Ac-His-DBip-Arg-3Bal-NH2] (Ac-H[dBip]R[Bta]-NH2)",
    "Assigned category": "met"
  },
  {
    "Molecule": "CC(=O)N[C@@H](Cc1c[nH]cn1)C(=O)N[C@H](Cc1ccc(I)cc1)C(=O)N[C@@H](CCCNC(=N)N)C(=O)N[C@@H](Cc1ccc(-c2ccccc2)cc1)C(N)=O [Peptide 29, Ac-His-(pI)DPhe-Arg-Bip-NH2] (Ac-H[dPhe(4-I)]R[Bip]-NH2)",
    "Assigned category": "met"
  }
]

## Input Confirm if pEC50 reported for the molecule CCCCCCCC(=O)N[C@@H](Cc1c[nH]cn1)C(=O)N[C@H](Cc1ccc(-c2ccccc2)cc1)C(=O)N[C@@H](CCCNC(=N)N)C(=O)N[C@@H](Cc1c[nH]c2ccccc12)C(N)=O [Peptide 7, Octanoyl-His-DBip-Arg-Trp-NH2] is 7 or above.
## Output met

## Input Form field: pEC50 at least 7? Entry: CCCCCCCC(=O)N[C@@H](Cc1c[nH]c2ccccc12)C(=O)N[C@H](Cc1ccccc1)C(=O)N[C@@H](CCCNC(=N)N)C(=O)N[C@@H](Cc1c[nH]c2ccccc12)C(N)=O [Peptide 10, Octanoyl-Trp-DPhe-Arg-Trp-NH2] (Octanoyl-W[dF]RW-NH2)
## Output met

## Input Reported pEC50 reaches at least 7 for CC(=O)N[C@@H](Cc1cccnc1)C(=O)N[C@H](Cc1ccccc1)C(=O)N[C@@H](CCCNC(=N)N)C(=O)N[C@@H](Cc1ccc2ccccc2c1)C(N)=O [Peptide 23, Ac-3PAL-DPhe-Arg-Nal(2’)-NH2] (Ac-[3Pal][dF]R[2Nal]-NH2) ?
## Output not met

## Input Entry CC(=O)N[C@@H](Cc1ccc(-c2ccccc2)cc1)C(=O)N[C@H](Cc1ccc(I)cc1)C(=O)N[C@@H](CCCNC(=N)N)C(=O)N[C@@H](Cc1c[nH]c2ccccc12)C(N)=O [Peptide 17, Ac-Bip-(pI)DPhe-Arg-Trp-NH2] (Ac-[Bip][dPhe(4-I)]RW-NH2) : is its pEC50 no less than 7?
## Output not met

## Input Item CCCCCCCC(=O)N[C@@H](Cc1c[nH]cn1)C(=O)N[C@H](Cc1ccccc1)C(=O)N[C@@H](CCCNC(=N)N)C(=O)N1Cc2ccccc2C[C@H]1C(N)=O [Peptide 4, Octanoyl-His-DPhe-Arg-Tic-NH2] (Octanoyl-H[dF]R[Tic]-NH2) with pEC50 of 7 or above?
## Output not met

## Input # check: pEC50 of CC(=O)N[C@@H](Cc1c[nH]c2ccccc12)C(=O)N[C@H](Cc1ccc(I)cc1)C(=O)N[C@@H](CCCNC(=N)N)C(=O)N[C@@H](Cc1c[nH]c2ccccc12)C(N)=O [Peptide 13, Ac-Trp-(pI)DPhe-Arg-Trp-NH2] (Ac-W[dPhe(4-I)]RW-NH2) is greater than or equal to 7
## Output not met

## Input Record CC(=O)N[C@@H](Cc1ccccc1)C(=O)N[C@H](Cc1ccc(-c2ccccc2)cc1)C(=O)N[C@@H](CCCNC(=N)N)C(=O)N[C@@H](Cc1c[nH]c2ccccc12)C(N)=O [Peptide 20, Ac-Phe-DBip-Arg-Trp-NH2] (Ac-F[dBip]RW-NH2) ; criterion: pEC50 no lower than 7. Met?
## Output not met

## Input # bool: pEC50 of CC(=O)N[C@@H](Cc1c[nH]cn1)C(=O)N[C@H](Cc1ccc(I)cc1)C(=O)N[C@@H](CCCNC(=N)N)C(=O)N[C@@H](Cc1ccccc1)C(N)=O [Peptide 32, Ac-His-(pI)DPhe-Arg-Phe-NH2] (Ac-H[dPhe(4-I)]RF-NH2) >= 7
## Output met

## Input Does pEC50 meet or surpass 7 for CCCCCCCC(=O)N[C@@H](Cc1c[nH]cn1)C(=O)N[C@H](Cc1ccc(I)cc1)C(=O)N[C@@H](CCCNC(=N)N)C(=O)N[C@@H](Cc1c[nH]c2ccccc12)C(N)=O [Peptide 6, Octanoyl-His-(pI)DPhe-Arg-Trp-NH2] ?
## Output met

====

The following molecules are shown together with reported EC50 values.
Assay target: mMC5R (Mus musculus, UniProt P41149)
Sequence (P41149 whole entry): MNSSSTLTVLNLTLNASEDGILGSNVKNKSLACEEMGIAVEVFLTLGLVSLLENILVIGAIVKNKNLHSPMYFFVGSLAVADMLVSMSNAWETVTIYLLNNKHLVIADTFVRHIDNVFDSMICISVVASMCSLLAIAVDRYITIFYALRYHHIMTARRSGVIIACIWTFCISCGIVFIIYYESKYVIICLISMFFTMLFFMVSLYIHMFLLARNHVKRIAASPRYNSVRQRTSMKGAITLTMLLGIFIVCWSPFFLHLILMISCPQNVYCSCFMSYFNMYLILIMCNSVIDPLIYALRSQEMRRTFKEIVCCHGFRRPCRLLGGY
Test name: CRE/β-galactosidase reporter gene bioassay, agonist activity at mMC5R
Assay type: cell-based
Square brackets hold non-standard residues; d marks the D form. Peptide text beside a SMILES is read from it. dPhe(4-I) = N[C@H](Cc1ccc(I)cc1)C(=O)O; 1Nal = N[C@@H](Cc1cccc2ccccc12)C(=O)O; 2Thi = N[C@@H](Cc1cccs1)C(=O)O
Answer in µM, number only, no unit symbol.

[
  {
    "Molecule": "CC(=O)N[C@@H](Cc1c[nH]c2ccccc12)C(=O)N[C@H](Cc1ccccc1)C(=O)N[C@@H](CCCNC(=N)N)C(=O)N[C@@H](Cc1cccc2ccccc12)C(N)=O [Peptide 24, Ac-Trp-DPhe-Arg-Nal(1’)-NH2] (Ac-W[dF]R[1Nal]-NH2)",
    "EC50 (µM)": 3
  }
]

## Input Give mMC5R (Mus musculus, UniProt P41149) EC50 for CC(=O)N[C@@H](Cc1cccs1)C(=O)N[C@H](Cc1ccc(I)cc1)C(=O)N[C@@H](CCCNC(=N)N)C(=O)N[C@@H](Cc1c[nH]c2ccccc12)C(N)=O [Peptide 14, Ac-2Thi-(pI)DPhe-Arg-Trp-NH2] (Ac-[2Thi][dPhe(4-I)]RW-NH2)
## Output 0.071

====

Assay target: mMC4R (Mus musculus, UniProt P56450)
Sequence (P56450 whole entry): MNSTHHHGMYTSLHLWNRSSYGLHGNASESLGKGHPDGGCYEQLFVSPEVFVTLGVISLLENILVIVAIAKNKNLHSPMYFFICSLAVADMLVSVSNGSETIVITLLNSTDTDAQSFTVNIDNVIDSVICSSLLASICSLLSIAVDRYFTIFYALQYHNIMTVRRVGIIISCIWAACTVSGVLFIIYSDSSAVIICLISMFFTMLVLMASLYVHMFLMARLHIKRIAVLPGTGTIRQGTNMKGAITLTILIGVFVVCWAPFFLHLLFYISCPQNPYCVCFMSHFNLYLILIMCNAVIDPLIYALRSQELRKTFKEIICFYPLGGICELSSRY
Test name: CRE/β-galactosidase reporter gene bioassay, agonist activity at mMC4R
Assay type: cell-based
Stated conditions: fold difference in EC50 vs peptide 1; negative prefix = more potent than 1
Square brackets hold non-standard residues; d marks the D form. Peptide text beside a SMILES is read from it. dBip = N[C@H](Cc1ccc(-c2ccccc2)cc1)C(=O)O; dPhe(4-I) = N[C@H](Cc1ccc(I)cc1)C(=O)O; d1Nal = N[C@H](Cc1cccc2ccccc12)C(=O)O; 4Pal = N[C@@H](Cc1ccncc1)C(=O)O
Measured metric: mMC4R Fold Diff.

[
  {
    "Molecule": "CC(=O)N[C@@H](Cc1ccncc1)C(=O)N[C@H](Cc1ccc(-c2ccccc2)cc1)C(=O)N[C@@H](CCCNC(=N)N)C(=O)N[C@@H](Cc1c[nH]c2ccccc12)C(N)=O [Peptide 22, Ac-4PAL-DBip-Arg-Trp-NH2] (Ac-[4Pal][dBip]RW-NH2)",
    "Assay target": "mMC4R (Mus musculus, UniProt P56450)",
    "mMC4R Fold Diff.": 92
  }
]

## Input Could you tell me which mMC4R Fold Diff. is on file for CC(=O)N[C@@H](Cc1ccccc1)C(=O)N[C@H](Cc1cccc2ccccc12)C(=O)N[C@@H](CCCNC(=N)N)C(=O)N[C@@H](Cc1c[nH]c2ccccc12)C(N)=O [Peptide 21, Ac-Phe-DNal(1’)-Arg-Trp-NH2] (Ac-F[d1Nal]RW-NH2) ?
## Output 205

## Input Look at this molecule and give its reported mMC4R Fold Diff.. CC(=O)N[C@@H](Cc1c[nH]cn1)C(=O)N[C@H](Cc1ccc(I)cc1)C(=O)N[C@@H](CCCNC(=N)N)C(=O)N[C@@H](Cc1ccccc1)C(N)=O [Peptide 32, Ac-His-(pI)DPhe-Arg-Phe-NH2] (Ac-H[dPhe(4-I)]RF-NH2)
## Output 6
